- Measurement protocol: yeast display, Sf9 membrane polyspecificity reagent, FACS + sequencing; frameworks hold sequencing errors
Measured metric: polyreactivity (PSR sort gate)

Observe how each entry below is paired with its result.
>>> experimental_result("QVQLVESGGCLVQAGGSLRLSCAASGLIFRGYAMGWYRQAPGKERELVATITGGGRTNYADSVKGRFTLSRDNAKNTVYLQMNSLKPEDTAVYYCNTGYYGRLRDDYWGQGTQVTVSS")
"high polyreactivity"
>>> experimental_result("QVQLVESGVGLVQAGGSLRLSCAASGITFYGYAMGWYRQAPGKDRELVAAINWGGTGTYYADSVKGRFTISRDNAKNTVYFQMNSLKPEDTAVYYCNKAGDPIADPTAGKRQFDYWGQGTQVTVSS")
"low polyreactivity"
>>> experimental_result("QVQLVESGGVLVQAGGSLRLTCAAYGFSFSTYAMGWYRQAPGKERQLVASIDWSGDSTYYADSVKGRFTISRDNAKNTVYLQMNSLKPEDTAVYYCAADDASYPYIFDSYDYWGQGTQVTVSS")
"low polyreactivity"
>>> experimental_result("QVQLVESGGGLVQAGGSLRLSCAASGRISLVNAMGWYRQAPGKERELVAAITYTGGSTYYADSVKGRFTISRDNAKNTVYLQMNSLKPEDTAVYYCAAEYYYVYTYDYWGQGTQVTVSS")
"high polyreactivity"

Please examine the following record next.
// query Report polyreactivity (PSR sort gate) for QVQLVESAGGLVQAAGSLRLSCDASGFTTYYNAMGWYRQAPGKERELVAAISSSGGSTNYADSVKGRFTISRDNAKNTVYLQMNSLKPEDTAVYYCAARLYGWYYGGYTRYDYWGQGTQVTVSS please.
// result high polyreactivity
